Molecular target: T1, human CTLA-4 (Example 3 ELISAs, construct not stated) (human, UniProt P16410 36-161)
T1 sequence (looked up): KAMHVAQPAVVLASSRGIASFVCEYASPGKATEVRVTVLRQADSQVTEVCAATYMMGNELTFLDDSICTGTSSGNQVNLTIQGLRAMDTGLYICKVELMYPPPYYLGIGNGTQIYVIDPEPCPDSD
Experiment: ELISA, antibody titrated on human CTLA-4, OD450
For each record, write down the corresponding EC50 (read off the curve).

Take a look at these entries with their results.
[[record]]
binder = "W3162-1.145.10 xAb.IgG1 (antibody, V domains shown, Chimeric: rat variable regions fused with constant region of human antibody (label xAb.IgG1)) VH: EVQLVESGGGLVQPGRSLKLSCAASDLTFSNYDMAWVRQTPTKGLEWVASISPNGGNTYYRDSVKGRFTVSRDNAKNSLYLQMDSLRSEDTATYYCARHLWFAYWGQGTLVTVSS VL: DIQMTQSPSSMSASLGDRVTISCQASQDIGSNLIWFQQKPGKSPRPMIYYATHLADGVPSRFSGSRSGSDYSLTISSLESEDVADYHCLQYKQYPRTFGGGTKLELK"
result = "~0.01 nM"

[[record]]
binder = "W3162-1.101.2 xAb.IgG1 (antibody, V domains shown, Chimeric: rat variable regions fused with constant region of human antibody (label xAb.IgG1)) VH: EEQLVESGGGLVQPGKSLKLSCSASGFTFRSSAMHWIRQPPGKGLDWVAFISSGGDTAYADAVKGRFIVSRDNAENTLFLQLNSLKSEDTAIYYCVRMERIPTWGQGVMVTVSS VL: DIVLTQSPVLAVSLGQRATISCRASQSVSISSINLIHWYQQRPGQQPKLLIYRTSNLASGIPARFSGSGSGTDFTLSIDPVQADDVADYYCQQSRESPLTFGSGTKLEIK"
result = "~0.04 nM"


Moving on to another binder below.
Answer with the recorded EC50 (read off the curve) for the binder listed here: W3162-1.146.19 xAb.IgG1 (antibody, V domains shown, Chimeric: rat variable regions fused with constant region of human antibody (label xAb.IgG1)) VH: EVQLQESGPGLVKPSQSLSLTCSVTYHTITSGYDWTWIRKFPGNQMEWMGYISYSGNTNYNPSLKSRISITRDTSKNQFFLHLNSVTSEDTATYYCASMMVPHYYVMDAWGQGASVTVSS VL: DVVLTQTPPTSSATIGQSVSISCRSSQSLLNSDGNTYLYWYLQRPSQSPQLLIYLVSKLGSGVPNRFSGSGSGTDFTLKISGVEAEDLGLYYCVQGTHDPWTFGGGTKLELK
~0.04 nM
